Test: Maxima of UV-A and UV-B absorption of quinoxaline derivatives in 2-propanol
Assay type: physicochemical
Settings: 1 mg of substance per 100 ml of solvent, wavelength of UV-B maximum
1 (yes) if UV-B (280 320 nm) λ [nm] is below 300 nm. 0 (no) if not; exact matches included in 0 (no).

COc1cc(Nc2nc3ccccc3nc2-c2ccccc2)cc(OC)c1OC    1 (yes)

input: In plain terms, does CCOC(=O)c1nc2ccccc2nc1Nc1ccc(C(=O)O)cc1 come in under 300 nm for UV-B (280 320 nm) λ [nm]?
output: 0 (no)

* * *

Experiment: Maxima of UV-A and UV-B absorption of quinoxaline derivatives in 2-propanol
Format: physicochemical
Conditions: 1 mg of substance per 100 ml of solvent, wavelength of UV-A maximum
experimental readout: UV-A (400 320 nm) λ [nm]

CC(C)c1ccc(/C=C/C(=O)c2cnc3ccccc3n2)cc1    343.0 nm
O=C(/C=C/c1ccccc1)c1cnc2ccccc2n1    329.0 nm
CC(C)(C)OC(=O)c1ccc(Nc2cnc3ccccc3n2)cc1    374.3 nm
COC(=O)c1cc(Nc2cnc3ccccc3n2)cc(C(=O)OC)c1    368.3 nm

For each of the items listed, what is its UV-A (400 320 nm) λ [nm]?
1. O=C(/C=C/c1ccc2c(c1)OCO2)c1cnc2ccccc2n1
2. FC(F)(F)c1cc(Nc2cnc3ccccc3n2)cc(C(F)(F)F)c1

output:
1: 381.0 nm; 2: 359.8 nm

* * *

For each entry below, report its UV-A (400 320 nm) λ [nm] value.
Assay: Maxima of UV-A and UV-B absorption of quinoxaline derivatives in 2-propanol
Assay type: physicochemical
Details: 1 mg of substance per 100 ml of solvent, wavelength of UV-A maximum
Answers are plain numbers, in nm.

COc1cc(Nc2nc3ccccc3nc2-c2ccccc2)c(C(=O)O)cc1OC    393.4

I would be grateful if you could provide UV-A (400 320 nm) λ [nm] for each of the following entries.
1. c1ccc(CNc2cnc3ccccc3n2)cc1
2. Clc1nc2ccccc2nc1-c1ccccc1

output:
364.0
335.0

* * *

Please respond with reported UV-B (280 320 nm) λ [nm] for every item in the list.
Assay: Maxima of UV-A and UV-B absorption of quinoxaline derivatives in 2-propanol
Assay type: physicochemical
Conditions: 1 mg of substance per 100 ml of solvent, wavelength of UV-B maximum
One number for each entry, in nm.

Known results for compounds:
O=C(O)c1ccc(Nc2nc3ccccc3nc2-c2ccccc2)cc1    303.8
COc1ccc(Nc2cnc3ccccc3n2)cc1    291.1
O=c1[nH]c2ccccc2nc1-c1ccccc1    305.0
O=C(/C=C/C=C/c1ccccc1)c1cnc2ccccc2n1    302.0
CC(C)c1ccc(C(=O)c2nc3ccccc3nc2C(=O)c2ccc(C(C)C)cc2)cc1    280.0
O=C(O)c1ccc(Nc2cnc3ccccc3n2)cc1    297.2
Fc1cc(F)c(N(c2cnc3ccccc3n2)c2cnc3ccccc3n2)c(F)c1    289.3
COc1cc(Nc2cnc3ccccc3n2)cc(OC)c1OC    275.6

input: Which UV-B (280 320 nm) λ [nm] value belongs to O=C(O)c1ccc(NCc2cnc3ccccc3n2)cc1 ?
output: 302.9

* * *

Experiment: Maxima of UV-A and UV-B absorption of quinoxaline derivatives in 2-propanol
Format: physicochemical
Conditions: 1 mg of substance per 100 ml of solvent, absorbance at UV-A maximum
Description: The measurement was carried out in 2-propanol at a concentration of 1 mg of substance per 100 ml of solvent.
Field: UV-A (400 320 nm) Max. abs.. Provide a value for each of the molecules that follow.

FC(F)(F)c1cc(Nc2cnc3ccccc3n2)cc(C(F)(F)F)c1    0.262

// each molecule listed below needs its UV-A (400 320 nm) Max. abs.
1. O=C(c1ccccc1)c1ccccc1Nc1cnc2ccccc2n1
2. O=C(/C=C/C=C/c1ccccc1)c1cnc2ccccc2n1

output:
1: 0.424; 2: 1.0497

* * *

Experiment: Maxima of UV-A and UV-B absorption of quinoxaline derivatives in 2-propanol
Assay type: physicochemical
Conditions: 1 mg of substance per 100 ml of solvent, absorbance at UV-B maximum
I'd be grateful if you could share measured UV-B (280 320 nm) Max. abs. for these entries.
Give bare numbers.

Give UV-B (280 320 nm) Max. abs. for each of the items listed below.
1. O=C(/C=C/C=C/c1ccccc1)c1cnc2ccccc2n1
2. Clc1nc2ccccc2nc1C#Cc1ccccc1
3. COc1cc(Nc2nc3ccccc3nc2-c2ccccc2)c(C(=O)O)cc1OC
4. O=c1[nH]c2ccccc2nc1/C=C/C=C/c1ccccc1
5. O=C(/C=C/c1ccc2c(c1)OCO2)c1cnc2ccccc2n1
6. O=C(O)c1ccc(CNc2nc3ccccc3nc2Cl)cc1
7. Clc1ccc(Nc2cnc3ccccc3n2)c(Cl)c1
8. CCOC(=O)c1nc2ccccc2[nH]c1=O

output:
1. 0.6584
2. 0.6431
3. 0.635
4. 0.6004
5. 0.4556
6. 0.2183
7. 0.757
8. 0.279

Give measured UV-B (280 320 nm) Max. abs. for every item shown.
1. COc1cc(Nc2cnc3ccccc3n2)c(C(=O)O)cc1OC
2. Cc1ccc(/C=C/c2nc3ccccc3nc2/C=C/c2ccc(C)cc2)cc1
3. CCOC(=O)c1nc2ccccc2nc1Nc1ccc(C(=O)O)cc1
4. CC(C)(C)OC(=O)c1ccc(Nc2nc3ccccc3nc2Cl)cc1
5. O=c1[nH]c2ccccc2nc1-c1ccccc1
6. CC(C)c1ccc(C(=O)c2nc3ccccc3nc2C(=O)c2ccc(C(C)C)cc2)cc1
7. CCOC(=O)c1nc2ccccc2nc1Nc1cc(F)c(F)cc1C(=O)O
8. COC(=O)c1cc(Nc2cnc3ccccc3n2)cc(C(=O)OC)c1

output:
1. 0.455
2. 0.3327
3. 1.270
4. 0.4672
5. 0.373
6. 0.45
7. 0.4067
8. 0.789

State the recorded UV-B (280 320 nm) Max. abs. for every item in the following list.
1. CCOC(=O)CCC(NC(=O)c1ccc(Nc2cnc3ccccc3n2)cc1)C(=O)OCC (stereo not shown)
2. CCOC(=O)c1nc2ccccc2nc1Nc1cc(OC)c(OC)c(OC)c1
3. CCC(=O)c1cnc2ccccc2n1
4. CCOC(=O)c1nc2ccccc2nc1Nc1cc(OC)c(OC)cc1C(=O)O
5. CC(C)OC(=O)c1ccc(Nc2nc3ccccc3nc2-c2ccccc2)cc1

output:
1. 0.756
2. 0.614
3. 0.3236
4. 0.5713
5. 0.849

Kindly give each listed record's UV-B (280 320 nm) Max. abs..
1. O=C(c1ccccc1)c1cnc2ccccc2n1
2. Fc1cc(F)c(N(c2cnc3ccccc3n2)c2cnc3ccccc3n2)c(F)c1

output:
0.330
0.966

Take each entry in turn and give its UV-B (280 320 nm) Max. abs..
1. CC(=O)c1nc2ccccc2nc1C(C)=O
2. O=C(O)c1ccc(Nc2cnc3ccccc3n2)cc1

output:
[0.3011, 1.141]

* * *

I'd be grateful if you could share measured UV-B (280 320 nm) λ [nm] for these entries.
Experiment: Maxima of UV-A and UV-B absorption of quinoxaline derivatives in 2-propanol
Assay type: physicochemical
Conditions: 1 mg of substance per 100 ml of solvent, wavelength of UV-B maximum
Give bare numbers, in nm.

CCOC(=O)c1nc2ccccc2nc1Nc1cc(OC)c(OC)c(OC)c1    295.6
CC(C)(C)OC(=O)c1ccc(Nc2nc3ccccc3nc2Cl)cc1    291.0
O=C(c1ccccc1)c1cnc2ccccc2n1    300.0

Turning now to a further compound:
input: Look up UV-B (280 320 nm) λ [nm] for this compound: C(#Cc1nc2ccccc2nc1C#Cc1ccccc1)c1ccccc1
output: 294.0

* * *

Can you tell me UV-A (400 320 nm) λ [nm] for the items I'm about to list?
Test: Maxima of UV-A and UV-B absorption of quinoxaline derivatives in 2-propanol
Format: physicochemical
Details: 1 mg of substance per 100 ml of solvent, wavelength of UV-A maximum
Numbers only, in nm.

Reference set, count: 6
Cc1nc2ccc(Cl)cc2nc1C    322.0
CCOC(=O)CCC(NC(=O)c1ccc(Nc2cnc3ccccc3n2)cc1)C(=O)OCC (stereo not drawn)    380.0
CC(=O)c1ccn2c(c1)nc1nc3ccccc3nc12    364.8
O=c1[nH]c2ccccc2nc1-c1ccccc1    365.0
Cc1ccc(S(=O)(=O)c2cnc3ccccc3n2)cc1    321.0
O=C(O)c1ccc(Nc2cnc3ccccc3n2)c(O)c1    381.0

Hi there! I need UV-A (400 320 nm) λ [nm] for each item below, if you can.
1. CCOC(=O)c1nc2ccccc2nc1Nc1ccc(C(C)=O)cc1
2. c1ccc2nc(Oc3cnc4ccccc4n3)cnc2c1
3. COc1cc(Nc2nc3ccccc3nc2-c2ccccc2)cc(OC)c1OC
4. COc1cc(Nc2cnc3ccccc3n2)cc(OC)c1OC
5. CCOC(=O)c1nc2ccccc2nc1Cl
6. CC(=O)c1ccc(Nc2cnc3ccccc3n2)cc1
7. CCOC(=O)c1nc2ccccc2nc1Nc1cc(F)c(F)cc1C(=O)O

output:
1. 328.5
2. 320.0
3. 390.4
4. 386.1
5. 322.9
6. 374.9
7. 381.5
